# assayed system: G-protein coupled estrogen receptor 1 (Homo sapiens) (UniProt Q99527)
# test description: GPR30 binders, concentration-response potency, dose response, cell-based (AID 1224)
# test parameters: GPR30-expressing cells, fluorescent ligand binding displacement
The source made the active and inactive calls. The rule behind the calls is not given here.
Labels: label 1 for active, label 0 for inactive

{"columns": ["molecule", "assigned category"],
 "data": [
  ["O=C(O)c1ccc([N+](=O)[O-])c2c1NC(c1ccccc1)C1CC=CC21 (configuration not stated)", "label 1"],
  ["CC(=O)Oc1ccc(C2Nc3c(C(=O)O)ccc([N+](=O)[O-])c3C3C=CCC32)cc1 (configuration not stated)", "label 0"]
]}
